System: 171881-019-R-J1-PDC tumor spheroids, viability
Experiment: Anticancer human tumor 171881-019-R-J1-PDC patient-derived invasive breast carcinoma cell line growth inhibition [GQUAD]; active = viability on the fitted dose curve at most 10% of control; inactive = the rest
Settings: second compound 3.16 µM; first compound 10 µM; spheroids with HUVEC and MSC
Pick one: 1.0 for active, 0.0 for inactive

Illustrative cases are given below, each with its answer.
O=C(NO)c1cnc(N2CCN(S(=O)(=O)c3ccc4ccccc4c3)CC2)nc1 + CN(C)c1ccc(Nc2c3ccc(NC(=O)CCN4CCCC4)cc3nc3cc(NC(=O)CCN4CCCC4)ccc23)cc1
1.0
CC1COCCN1c1cc(C2(S(C)(=N)=O)CC2)nc(-c2ccnc3[nH]ccc23)n1 (stereo not given) + Cc1cnc(CNC(=O)c2c(=O)c3ccc(N4CCCN(C)CC4)nc3n3c2sc2ccccc23)cn1
0.0
COc1cccc2c1C(=O)c1c(O)c3c(c(O)c1C2=O)CC(O)(C(=O)CO)CC3OC1CC(N)C(O)C(C)O1 (stereo not given) + CN(C)c1ccc(Nc2c3ccc(NC(=O)CCN4CCCC4)cc3nc3cc(NC(=O)CCN4CCCC4)ccc23)cc1
1.0
CC1COCCN1c1cc(C2(O)CC3CCC(C2)O3)c2cnn(-c3ccn[nH]3)c2n1 (stereo not given) + CN(C)c1ccc(Nc2c3ccc(NC(=O)CCN4CCCC4)cc3nc3cc(NC(=O)CCN4CCCC4)ccc23)cc1
1.0

Continue with the next molecule.
Ask | I would be grateful if you could indicate the recorded call for CC(C)(O)C1CCC(Nc2ccc3ncc(-c4cccc(C(F)(F)F)c4)n3n2)CC1 (stereo not given) + CN(C)c1ccc(Nc2c3ccc(NC(=O)CCN4CCCC4)cc3nc3cc(NC(=O)CCN4CCCC4)ccc23)cc1 .
Reply | 1.0

====

Test system: 171881-019-R-J1-PDC tumor spheroids, viability
Assay: Anticancer human tumor 171881-019-R-J1-PDC cell line growth inhibition [GQUAD];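 note: spheroids exposed to compounds for 7 days; 100% = DMSO vehicle control viability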
Conditions: second compound 3.16 µM; first compound 10 µM; hits give low values; spheroids with HUVEC and MSC
Cut-off 9% on viability, T/C: below means y, at or above means n.

Illustrative cases are given below, each with its answer.
COc1cc(C2c3cc4c(cc3C(OC3OC5COC(C)OC5C(O)C3O)C3COC(=O)C23)OCO4)cc(OC)c1O (stereo not given) + CN(C)c1ccc(Nc2c3ccc(NC(=O)CCN4CCCC4)cc3nc3cc(NC(=O)CCN4CCCC4)ccc23)cc1
y
Cc1cccc(N(C)C(=O)C2C(O)CCN2c2nc(C)cc(C(F)(F)F)c2C#N)c1 (stereo not given) + Cc1[nH]c2ccc(F)cc2c1-c1nc2c3cccnc3c3ncccc3c2[nH]1
n
CC(=O)O[C@H]1C(=O)[C@@]2(C)[C@H]([C@H](OC(=O)c3ccccc3)[C@]3(O)C[C@H](OC(=O)[C@H](O)[C@@H](NC(=O)c4ccccc4)c4ccccc4)C(C)=C1C3(C)C)[C@]1(OC(C)=O)CO[C@@H]1C[C@@H]2O + CN(C)c1ccc(Nc2c3ccc(NC(=O)CCN4CCCC4)cc3nc3cc(NC(=O)CCN4CCCC4)ccc23)cc1
y

Continue with the next compound.
Ask | Please state whether viability, T/C is below 9% for O=C(NO)c1cnc(N2CCN(S(=O)(=O)c3ccc4ccccc4c3)CC2)nc1 + Cc1cnc(CNC(=O)c2c(=O)c3ccc(N4CCCN(C)CC4)nc3n3c2sc2ccccc23)cn1
Reply | y

====

System: 171881-019-R-J1-PDC tumor spheroids, viability
Assay: Anticancer human tumor 171881-019-R-J1-PDC cell line growth inhibition [GQUAD]; active = viability on the fitted dose curve at most 10% of control; inactive = the rest;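 note: spheroids exposed to compounds for 7 days; 100% = DMSO vehicle control viability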
Conditions: second compound 0.1 µM; first compound 3.16 µM; spheroids with HUVEC and MSC
Pick one: active, inactive

Illustrative cases are given below, each with its answer.
CC(C)(O)C1CCC(Nc2ccc3ncc(-c4cccc(C(F)(F)F)c4)n3n2)CC1 (centres undefined) + Cc1[nH]c2ccc(F)cc2c1-c1nc2c3cccnc3c3ncccc3c2[nH]1
inactive
C=CCn1c(=O)c2cnc(Nc3ccc(N4CCN(C)CC4)cc3)nc2n1-c1cccc(C(C)(C)O)n1 + CN(C)c1ccc(Nc2c3ccc(NC(=O)CCN4CCCC4)cc3nc3cc(NC(=O)CCN4CCCC4)ccc23)cc1
inactive
O=c1[nH]cc(F)c(=O)[nH]1 + Cc1cnc(CNC(=O)c2c(=O)c3ccc(N4CCCN(C)CC4)nc3n3c2sc2ccccc23)cn1
inactive

Continue with the next compound.
Ask | I would be grateful if you could indicate the recorded call for CC1COCCN1c1cc(C2(O)CC3CCC(C2)O3)c2cnn(-c3ccn[nH]3)c2n1 (centres undefined) + Cc1[nH]c2ccc(F)cc2c1-c1nc2c3cccnc3c3ncccc3c2[nH]1 .
Reply | active

====

Tested on: 171881-019-R-J1-PDC tumor spheroids, viability
Experiment: Anticancer human tumor 171881-019-R-J1-PDC cell line growth inhibition [GQUAD];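 note: spheroids exposed to compounds for 7 days; 100% = DMSO vehicle control viability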
Settings: second compound 0.0316 µM; first compound 3.16 µM; hits give low values; spheroids with HUVEC and MSC
REPORTED ENDPOINT: viability, T/C

COc1cc(C2c3cc4c(cc3C(OC3OC5COC(C)OC5C(O)C3O)C3COC(=O)C23)OCO4)cc(OC)c1O (stereo not given) + Cc1[nH]c2ccc(F)cc2c1-c1nc2c3cccnc3c3ncccc3c2[nH]1
33.3%
O=C(NO)c1cnc(N2CCN(S(=O)(=O)c3ccc4ccccc4c3)CC2)nc1 + Cc1[nH]c2ccc(F)cc2c1-c1nc2c3cccnc3c3ncccc3c2[nH]1
0.09%
O=C(c1cc(Cc2n[nH]c(=O)c3ccccc23)ccc1F)N1CCN(C(=O)C2CC2)CC1 + Cc1cnc(CNC(=O)c2c(=O)c3ccc(N4CCCN(C)CC4)nc3n3c2sc2ccccc23)cn1
80.9%
Nc1ccn(C2OC(CO)C(O)C2(F)F)c(=O)n1 (stereo not given) + Cc1[nH]c2ccc(F)cc2c1-c1nc2c3cccnc3c3ncccc3c2[nH]1
36.5%

Ask | GET /values?readout=viability, T/C&item= Cc1cccc(N(C)C(=O)C2C(O)CCN2c2nc(C)cc(C(F)(F)F)c2C#N)c1 (stereo not given) + CN(C)c1ccc(Nc2c3ccc(NC(=O)CCN4CCCC4)cc3nc3cc(NC(=O)CCN4CCCC4)ccc23)cc1
Reply | 87.6%

====

System: 171881-019-R-J1-PDC tumor spheroids, viability
Experiment: Anticancer human tumor 171881-019-R-J1-PDC cell line growth inhibition [GQUAD];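 note: spheroids exposed to compounds for 7 days; 100% = DMSO vehicle control viability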
Details: second compound 0.0316 µM; first compound 0.316 µM; hits give low values; spheroids with HUVEC and MSC
The compounds listed here are annotated with their viability, T/C.
Write it as a number; the unit % goes unstated.

Sample records with viability, T/C:
C=CC(=O)N1CCN(c2nc(=O)n(-c3c(C)ccnc3C(C)C)c3nc(-c4c(O)cccc4F)c(F)cc23)C(C)C1 (stereo not given) + Cc1[nH]c2ccc(F)cc2c1-c1nc2c3cccnc3c3ncccc3c2[nH]1
84.8
Cc1cccc(N(C)C(=O)C2C(O)CCN2c2nc(C)cc(C(F)(F)F)c2C#N)c1 (stereo not given) + Cc1[nH]c2ccc(F)cc2c1-c1nc2c3cccnc3c3ncccc3c2[nH]1
95.6
O=C(c1cc(Cc2n[nH]c(=O)c3ccccc23)ccc1F)N1CCN(C(=O)C2CC2)CC1 + Cc1cnc(CNC(=O)c2c(=O)c3ccc(N4CCCN(C)CC4)nc3n3c2sc2ccccc23)cn1
87

Ask | GET /values?readout=viability, T/C&item= C=CCn1c(=O)c2cnc(Nc3ccc(N4CCN(C)CC4)cc3)nc2n1-c1cccc(C(C)(C)O)n1 + CN(C)c1ccc(Nc2c3ccc(NC(=O)CCN4CCCC4)cc3nc3cc(NC(=O)CCN4CCCC4)ccc23)cc1
Reply | 87.6

Ask | GET /values?readout=viability, T/C&item= Cn1ncnc1[C@H]1c2n[nH]c(=O)c3cc(F)cc(c23)N[C@@H]1c1ccc(F)cc1 + Cc1cnc(CNC(=O)c2c(=O)c3ccc(N4CCCN(C)CC4)nc3n3c2sc2ccccc23)cn1
Reply | 73.6

====

Tested on: 171881-019-R-J1-PDC tumor spheroids, viability
Assay: Anticancer human tumor 171881-019-R-J1-PDC cell line growth inhibition [GQUAD]; active = viability on the fitted dose curve at most 10% of control; inactive = the rest;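 note: spheroids exposed to compounds for 7 days; 100% = DMSO vehicle control viability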
Settings: second compound 10 µM; first compound 10 µM; spheroids with HUVEC and MSC
Pick one: 1 for active, 0 for inactive

Nc1ccn(C2OC(CO)C(O)C2(F)F)c(=O)n1 (stereo not given) + Cc1[nH]c2ccc(F)cc2c1-c1nc2c3cccnc3c3ncccc3c2[nH]1
0
C=CC(=O)N1CCN(c2nc(=O)n(-c3c(C)ccnc3C(C)C)c3nc(-c4c(O)cccc4F)c(F)cc23)C(C)C1 (stereo not given) + CN(C)c1ccc(Nc2c3ccc(NC(=O)CCN4CCCC4)cc3nc3cc(NC(=O)CCN4CCCC4)ccc23)cc1
1
Nc1ccn(C2OC(CO)C(O)C2(F)F)c(=O)n1 (stereo not given) + CN(C)c1ccc(Nc2c3ccc(NC(=O)CCN4CCCC4)cc3nc3cc(NC(=O)CCN4CCCC4)ccc23)cc1
1
CC(C)(O)C1CCC(Nc2ccc3ncc(-c4cccc(C(F)(F)F)c4)n3n2)CC1 (stereo not given) + Cc1[nH]c2ccc(F)cc2c1-c1nc2c3cccnc3c3ncccc3c2[nH]1
1

Ask | I would be grateful if you could indicate the recorded call for COc1cccc2c1C(=O)c1c(O)c3c(c(O)c1C2=O)CC(O)(C(=O)CO)CC3OC1CC(N)C(O)C(C)O1 (stereo not given) + CN(C)c1ccc(Nc2c3ccc(NC(=O)CCN4CCCC4)cc3nc3cc(NC(=O)CCN4CCCC4)ccc23)cc1 .
Reply | 1
